Reported Ki is given for each of the following molecules.
# TGT: hLDH5 (LDH-A) (Homo sapiens)
# TEST: Enzyme inhibition of human lactate dehydrogenase isoform 5
# SETUP CONDITIONS: ranges of values; 37° C., pH 7.4; read-out: inhibitory activity against hLDH5 (Ki)
# Experimental: The compounds described in the examples were evaluated in enzymatic assays to assess its inhibitory properties against two human isoforms of lactate dehydrogenase, hLDH5 containing solely the subunit LDH-A (LEEBIO—USA), and the hLDH1 containing only the LDH subunits-B (Sigma Aldrich, USA), in order to verify the selectivity of these compounds. (for Ki measurements). […] IC50 values were calculated as described below. […]

>  <SMI>
COC(=O)c1cc2c(F)cc(-c3ccccc3)cc2n1O

>  <TGT>
hLDH5 (LDH-A) (Homo sapiens)

>  <QUANTITY NAME>
Ki

>  <RESULT>
10 to 100 µM

$$$$
>  <SMI>
O=C(O)c1cc2c(C(F)(F)F)cc(-c3ccc(Cl)c(Cl)c3)cc2n1O

>  <TGT>
hLDH5 (LDH-A) (Homo sapiens)

>  <QUANTITY NAME>
Ki

>  <RESULT>
1 to 10 µM

$$$$
>  <SMI>
O=C(O)c1cc2c(C(F)(F)F)cc(-c3cccc(OC(F)(F)F)c3)cc2n1O

>  <TGT>
hLDH5 (LDH-A) (Homo sapiens)

>  <QUANTITY NAME>
Ki

>  <RESULT>
1 to 10 µM

$$$$
>  <SMI>
O=C(O)c1cc2c(C(F)(F)F)cc(-c3ccccc3)cc2n1O[C@@H]1O[C@H](CO)[C@@H](O)[C@H](O)[C@H]1O

>  <TGT>
hLDH5 (LDH-A) (Homo sapiens)

>  <QUANTITY NAME>
Ki

>  <RESULT>
10 to 100 µM

$$$$
>  <SMI>
O=C(O)c1cc2c(F)cc(-c3ccccc3)cc2n1O

>  <TGT>
hLDH5 (LDH-A) (Homo sapiens)

>  <QUANTITY NAME>
Ki

>  <RESULT>
5 to 25 µM

$$$$

q: Report Ki for `O=C(O)c1cc2c(F)cc(-c3ccc(Cl)cc3Cl)cc2n1O` please.
a: 5 to 25 µM

q: Report Ki for `O=C(OCc1ccccc1)c1cc2c(C(F)(F)F)cc(-c3ccccc3)cc2n1O` please.
a: 0.5 to 5 µM

q: Report Ki for `O=C(O)c1cc2c(C(F)(F)F)cc(-c3ccc(OC(F)(F)F)cc3)cc2n1O` please.
a: 0.5 to 5 µM

----------
Reported pKi is given for each of the following compounds.
# TGT: hLDH5 (LDH-A) (Homo sapiens)
# TEST: Enzyme inhibition of human lactate dehydrogenase isoform 5
# SETUP CONDITIONS: ranges of values; 37° C., pH 7.4; read-out: inhibitory activity against hLDH5 (Ki)
pKi: −log10 of the molar value.

Illustrative cases are given below, each with its answer.
>  <SMI>
O=C(O)c1cc2c(C(F)(F)F)cc(-c3cccc(Cl)c3Cl)cc2n1O

>  <pKi>
5.00 to 6.00

$$$$
>  <SMI>
COC(=O)c1cc2c(C(F)(F)F)cc(-c3cccc(OC(F)(F)F)c3)cc2n1O

>  <pKi>
5.00 to 6.00

$$$$
>  <SMI>
CC(C)OC(=O)c1cc2c(C(F)(F)F)cc(-c3ccccc3)cc2n1O

>  <pKi>
5.00 to 6.00

$$$$
>  <SMI>
CCOC(=O)c1cc2c(C(F)(F)F)cc(-c3ccccc3)cc2n1O

>  <pKi>
5.00 to 6.00

$$$$
>  <SMI>
CCOC(=O)c1cc2c(C(F)(F)F)cc(-c3ccc(Cl)cc3Cl)cc2n1O

>  <pKi>
5.00 to 6.00

$$$$
>  <SMI>
CCCCOC(=O)c1cc2c(C(F)(F)F)cc(-c3ccccc3)cc2n1O

>  <pKi>
5.30 to 6.30

$$$$

q: Report pKi for `COC(=O)c1cc2c(C(F)(F)F)cc(-c3ccccc3OC(F)(F)F)cc2n1O` please.
a: 4.60 to 5.30

Origin of measurements: patent US20140343001A1
